# Test system: Caco-2
# protocol_summary: cell viability relative to DMSO; higher = less toxic
# particulars: 72 h; 1000 nM
readout: cell viability
A complete answer gives the number followed by the unit.

Request: cell viability, test system Caco-2, entry O=C(/C=C/c1ccccc1)NCCO [brolitene]
93.5%

Same again, this time with COc1ccc(CNC(=O)c2sc3nc(C)cc(C)c3c2N)cc1
97.1%

Same again, this time with O=C(CCCCCCC(=O)Nc1ccccc1)NO [vorinostat]
93.9%

Same again, this time with C[C@@H]1CC[C@@]2(NC1)O[C@H]1C[C@H]3[C@@H]4CC=C5C[C@@H](O[C@@H]6O[C@H](CO)[C@@H](O[C@@H]7O[C@@H](C)[C@H](O)[C@@H](O)[C@H]7O)[C@H](O)[C@H]6O[C@@H]6O[C@@H](C)[C@H](O)[C@@H](O)[C@H]6O)CC[C@]5(C)[C@H]4CC[C@]3(C)[C@H]1[C@@H]2C [solamargine]
96%

Same again, this time with Cn1cc(-c2ccc3nnc(C(F)(F)c4ccc5ncccc5c4)n3n2)cn1
95.9%

Same again, this time with CN(C)C(=O)Oc1ccc[n+](C)c1 [mestinon]
99.8%

Same again, this time with Nc1nc(NC2CC2)cc(-c2cccc(Cl)c2Cl)n1 [TH-588]
93.7%

Same again, this time with CN(CCOc1ccc(-c2ccc3c(c2)OCO3)cc1C(C)(C)C)CC(=O)O
92.8%

* * *

Provide the recorded cell viability for the entries that follow.
# Tested on: Calu-3
# protocol_summary: cell viability relative to DMSO; higher = less toxic
# particulars: 72 h; 1000 nM
Could you give me the number in %? Just the number is fine.

Look up cell viability: NS(=O)(=O)c1ccc2c(c1)C1C=CCC1C(c1ccc(Br)cc1)N2 (stereo not drawn)
96.3

Same again, this time with O=C(O)[C@]1(Cc2cccc(Nc3nccs3)n2)CC[C@@H](Oc2cccc(Cl)c2F)CC1
88

Same again, this time with CCN(Cc1ccncc1)C(=O)C(CO)c1ccccc1 (stereo not drawn) [tropicamide]
95.9

Same again, this time with Cc1ccc(O)c([C@H](CCN(C(C)C)C(C)C)c2ccccc2)c1
88.6

Same again, this time with O=S(=O)(NCC1CC1)c1ccc(Nc2nccc(N3CCCc4cc(O)ccc43)n2)cc1
102

Same again, this time with Clc1ccc(CO/N=C(\Cn2ccnc2)c2ccc(Cl)cc2Cl)c(Cl)c1
94.8

Same again, this time with C=CCN(C)CCCCCCOc1ccc(C(=O)c2ccc(Br)cc2)c(F)c1
99.7

Same again, this time with CC(=O)[C@H]1CC[C@H]2[C@@H]3CC[C@H]4C[C@H](O)CC[C@]4(C)[C@H]3C(=O)C[C@]12C
97.4

* * *

# Tested on: HepG2
# protocol_summary: cell viability relative to DMSO; higher = less toxic
# particulars: 72 h; 10000 nM
Please use t for cell viability under 50% and f for everything else, ties included.

Determine whether this molecule shows cell viability lower than 50% (ties excluded): CNC(=O)[C@H](Cc1c[nH]c2ccccc12)NC(=O)[C@@H](CC(=O)NO)CC(C)C [ilomastat]
f

Same again, this time with C[C@@H](CN1CCC(Cc2ccccc2)CC1)[C@@H](O)c1ccc(O)cc1 [Ro-25-6981]
f

Same again, this time with O=c1cc(N2CCN(c3cccc(C(F)(F)F)c3)CC2)[nH]c(=O)n1C1CCCCC1 [ML179]
f

Same again, this time with CCCS(=O)(=O)Nc1ccc(F)c(C(=O)c2c[nH]c3ncc(-c4ccc(Cl)cc4)cc23)c1F [vemurafenib]
f

Same again, this time with C[C@@H]1CC[C@@]2(NC1)O[C@H]1C[C@H]3[C@@H]4CC=C5C[C@@H](O[C@@H]6O[C@H](CO)[C@@H](O[C@@H]7O[C@@H](C)[C@H](O)[C@@H](O)[C@H]7O)[C@H](O)[C@H]6O[C@@H]6O[C@@H](C)[C@H](O)[C@@H](O)[C@H]6O)CC[C@]5(C)[C@H]4CC[C@]3(C)[C@H]1[C@@H]2C [solamargine]
t

* * *

# System: Vero E6
# protocol_summary: drug sensitivity score (DSS) for viability; higher = more toxic; extreme values may be limits of the assay
# particulars: 72 h
readout: drug sensitivity score
Lab note: jot down the number only; don't add units.

Look up drug sensitivity score: Cc1c(NC(=O)c2cccnc2)c(=O)n(-c2ccccc2)n1C [nifenazone]
0

Same again, this time with C=C[C@@H]1C[C@]1(NC(=O)[C@@H]1C[C@@H]2CN1C(=O)[C@H](C(C)(C)C)NC(=O)O[C@@H]1C[C@H]1CCCCCc1nc3ccc(OC)cc3nc1O2)C(=O)NS(=O)(=O)C1CC1 [grazoprevir]
0

Same again, this time with C/C=C1\[C@H]2C=C(C)C[C@]1(N)c1ccc(=O)[nH]c1C2 [(-)-Huperzine A]
0

Same again, this time with CC(C)c1ccc(-c2cc(=O)c3ccccc3o2)cc1 [MN-64]
2.2

Same again, this time with CC(C)(C)/[N+]([O-])=C/c1ccc(S(=O)(=O)O)cc1S(=O)(=O)O [NXY-059]
0

Same again, this time with C/C(=N\NC(=O)[C@@H]1C(=O)NC[C@H]1c1ccccc1)c1cccc(Br)c1
0

Same again, this time with CN[C@H](CC(C)C)C(=O)N[C@H]1C(=O)N[C@@H](CC(N)=O)C(=O)N[C@H]2C(=O)N[C@H]3C(=O)N[C@H](C(=O)N[C@H](C(=O)O)c4cc(O)cc(O)c4-c4cc3ccc4O)[C@H](O[C@H]3C[C@](C)(N)[C@@H](O)[C@H](C)O3)c3ccc(c(Cl)c3)Oc3cc2cc(c3O[C@@H]2O[C@H](CO)[C@@H](O)[C@H](O)[C@H]2O[C@H]2C[C@](C)(NCc3ccc(-c4ccc(Cl)cc4)cc3)[C@@H](O)[C@H](C)O2)Oc2ccc(cc2Cl)[C@H]1O [oritavancin]
0

Same again, this time with COc1ccc(OC)c([C@@H](O)CNC(=O)CN)c1 [midodrine]
0

Same again, this time with Cc1nc(Nc2ccc(F)cc2)nc(N2CCc3ccccc3C2C)c1C (configuration not stated) [revaprazan]
0

Same again, this time with C[C@@H]1CC[C@@]2(NC1)O[C@H]1C[C@H]3[C@@H]4CC=C5C[C@@H](O[C@@H]6O[C@H](CO)[C@@H](O[C@@H]7O[C@@H](C)[C@H](O)[C@@H](O)[C@H]7O)[C@H](O)[C@H]6O[C@@H]6O[C@@H](C)[C@H](O)[C@@H](O)[C@H]6O)CC[C@]5(C)[C@H]4CC[C@]3(C)[C@H]1[C@@H]2C [solamargine]
6.8

Same again, this time with CO[C@@]12[C@H](COC(N)=O)C3=C(C(=O)C(C)=C(N)C3=O)N1C[C@@H]1N[C@@H]12 [mitomycin-C]
5.5

Same again, this time with CN1CCN(C(c2ccccc2)c2ccc(Cl)cc2)CC1 (configuration not stated) [chlorcyclizine]
0

* * *

# Tested on: HepG2
# protocol_summary: cell viability relative to DMSO; higher = less toxic
# particulars: 72 h; 1 nM
Provide the recorded cell viability for the entries that follow.
Could you give me the number in %? Just the number is fine.

Look up cell viability: CN(C)C(=O)Oc1ccc[n+](C)c1
95.1

Same again, this time with S=C(S)OC1CC2CC1C1CCCC21 (centres undefined)
103

Same again, this time with Cc1csc2c(N[C@@H](C)CN3CCN(S(=O)(=O)c4ccc(Cl)c(Cl)c4)CC3)ncnc12
106

Same again, this time with C[C@]12Cc3c[nH]nc3C[C@@H]1CC[C@@H]1[C@@H]2CC[C@@]2(C)[C@H]1CC[C@]2(C)O
103

Same again, this time with CC(C)(C(=O)O)c1ccc(C(=O)CCCN2CCC(OC(c3ccccc3)c3ccccc3)CC2)cc1
107

Same again, this time with O=C1[C@H](Cc2ccc(O)cc2)N2C(=O)CCN(C(=O)NCc3ccccc3)[C@H]2CN1Cc1cccc2ccccc12
102

Same again, this time with CCC(=O)O[C@@H](O[P@@](=O)(CCCCc1ccccc1)CC(=O)N1C[C@H](C2CCCCC2)C[C@H]1C(=O)O)C(C)C
103

Same again, this time with Cc1cc(-c2nc3cc(F)ccc3s2)ccc1NC(=O)[C@@H](N)CCCCN
95.6

Same again, this time with CCCCCCc1ccc(O)cc1O.Nc1c2ccccc2nc2ccccc12
103

Same again, this time with c1ccc(OCc2ccc(CCCN3CCOCC3)cc2)cc1
96.7

Same again, this time with O=C(/C=C/c1ccc2ccc(C(F)(F)F)cc2n1)c1ccncc1
97.1

Same again, this time with C[C@]12C=CC(=O)C=C1CC[C@@H]1[C@@H]2C(=O)C[C@@]2(C)[C@H]1CC[C@]2(O)C(=O)CO
100

Same again, this time with CCCC(=O)Nc1ncnc2c1ncn2[C@@H]1O[C@@H]2COP(=O)(O)O[C@H]2[C@H]1OC(=O)CCC
101

Same again, this time with C=C[C@@H]1C[C@]1(NC(=O)[C@@H]1C[C@@H]2CN1C(=O)[C@H](C(C)(C)C)NC(=O)O[C@@H]1C[C@H]1CCCCCc1nc3ccc(OC)cc3nc1O2)C(=O)NS(=O)(=O)C1CC1
106

Same again, this time with C[C@H](NCc1ccc(OCc2cccc(F)c2)cc1)C(N)=O [safinamide]
98.1

Same again, this time with O=C(Oc1cccc2cccnc12)c1ccccc1
104

Same again, this time with CCC(CC)COC(=O)[C@H](C)N[P@](=O)(OC[C@H]1O[C@@](C#N)(c2ccc3c(N)ncnn23)[C@H](O)[C@@H]1O)Oc1ccccc1
101

Same again, this time with O=c1c(O[C@@H]2O[C@H](CO)[C@H](O)[C@H](O)[C@H]2O)c(-c2ccc(O)c(O)c2)oc2cc(O)cc(O)c12
84.8

Same again, this time with C[N+](C)(C)CC[N+]1(C)Cc2c(Cl)c(Cl)c(Cl)c(Cl)c2C1 [chlorisondamine-diiodide]
94

Same again, this time with C=CCOc1ccccc1OCC(O)CNC(C)C (centres undefined)
97.4

Same again, this time with Cn1cnnc1Sc1c([N+](=O)[O-])ncn1C
100

Same again, this time with O=C(NCc1cccc(O)c1)Nc1nc(-c2ccncc2)cs1
94.2

Same again, this time with Cc1c(CN2CCN(C(=O)[C@H](C)O)CC2)sc2c(N3CCOCC3)nc(-c3cnc(N)nc3)nc12
104

Same again, this time with COc1cc(N2CCC(N(C)C)CC2)ccc1Nc1ncc(Cl)c(Nc2ccccc2P(C)(C)=O)n1
105

Same again, this time with O=C(O)c1cccnc1Nc1cccc(C(F)(F)F)c1
103

Same again, this time with COC(=O)[C@H](Cc1cccc(C(=N)N)c1)[C@@H](C)NC(=O)c1ccc(-c2cc[n+]([O-])cc2)cc1
89.3

Same again, this time with N#Cc1ccc(Oc2ccc3c(c2)COB3O)cc1
106

Same again, this time with Cc1nc(Nc2ccc(F)cc2)nc(N2CCc3ccccc3C2C)c1C (centres undefined)
98.2

Same again, this time with CC(C)(C)Nc1nc(Nc2ccc(C(N)=O)cc2)cc(N)c1C#N
91.7

Same again, this time with CCC(=O)N1CCOc2c(cc(-c3ccc(OC)c(OC)c3)cc2OC[C@H]2CCCN(C)C2)C1
96.6

Same again, this time with CN1[C@@H]2CC[C@H]1C[C@@H](OC(=O)c1cc(Cl)cc(Cl)c1)C2
98.7

Same again, this time with CC1=C(C(=O)O)N2C(=O)[C@@H](NC(=O)[C@H](N)C3=CCC=CC3)[C@H]2SC1
99.9

Same again, this time with COc1c(OCCCN2CCOCC2)ccc2c1N=C(NC(=O)c1cnc(N)nc1)N1CCN=C21
98.5

Same again, this time with C[C@@]1(F)[C@H](O)[C@@H](CO)O[C@H]1n1ccc(N)nc1=O
103
